Examples of binders with documented pKd follow.
Molecular target: T1, Mouse NRP-1 His (mouse, UniProt P97333 22-856)
T1 construct: Recombinant monomeric protein; also called mNRP-1; not shown: His tag
T1 sequence (P97333 22-856 limits assumed): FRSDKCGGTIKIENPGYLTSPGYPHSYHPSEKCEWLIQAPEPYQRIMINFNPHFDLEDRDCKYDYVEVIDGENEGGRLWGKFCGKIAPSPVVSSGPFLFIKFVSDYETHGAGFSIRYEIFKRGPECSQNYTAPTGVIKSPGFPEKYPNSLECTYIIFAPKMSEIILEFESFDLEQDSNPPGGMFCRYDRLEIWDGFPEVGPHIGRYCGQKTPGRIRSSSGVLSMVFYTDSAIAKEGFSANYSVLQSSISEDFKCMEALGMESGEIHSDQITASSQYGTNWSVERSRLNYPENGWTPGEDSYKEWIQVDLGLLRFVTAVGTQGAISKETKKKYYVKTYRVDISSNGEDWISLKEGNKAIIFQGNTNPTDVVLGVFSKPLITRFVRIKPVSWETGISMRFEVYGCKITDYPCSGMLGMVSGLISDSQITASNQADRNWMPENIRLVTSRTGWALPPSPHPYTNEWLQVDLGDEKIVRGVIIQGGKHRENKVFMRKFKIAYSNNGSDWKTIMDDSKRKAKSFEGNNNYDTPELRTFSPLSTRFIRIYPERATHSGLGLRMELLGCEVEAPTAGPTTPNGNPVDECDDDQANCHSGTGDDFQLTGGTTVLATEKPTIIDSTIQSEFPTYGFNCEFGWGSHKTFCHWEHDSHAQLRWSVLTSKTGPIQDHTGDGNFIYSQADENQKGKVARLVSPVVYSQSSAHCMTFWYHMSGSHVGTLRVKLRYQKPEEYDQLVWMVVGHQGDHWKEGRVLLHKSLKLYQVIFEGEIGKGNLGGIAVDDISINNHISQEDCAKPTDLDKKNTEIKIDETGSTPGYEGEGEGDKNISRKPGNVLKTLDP
Experiment: BLI ForteBio, IgG1 N297A on AHQ sensor, 100 nM monomeric antigen, 1:1 fit
Remember, pKd is on a log scale: it is -log10 of the molar concentration.

>>> measured_result("MAB4 (antibody, V domains shown) VH: QVQLVQSGAEVKKPGASVKVSCKASGYTFSRYYMHWVRQAPGQGLEWMGIINPLGGSTLYAQKFQGRVTMTRDTSTSTVYMELSSLRSEDTAVYYCARDLGYYGSGMHVWGQGTLVTVSS VL: DIQMTQSPSSVSASVGDRVTITCRASQGISRWLAWYQQKPGKAPKLLIYAASSLQSGVPSRFSGSGSGTDFTLTISSLQPEDFATYYCQQANLLPFTFGGGTKVEIK")
9.13

// next entry
// returns reported pKd for input MAB1 (antibody, V domains shown) VH: QVQLVQSGAGVKKPGASVKVSCKASGYTFRSYYMLWVRQAPGQGLEWMGIIDPSDGSTSYAQKFQGRVTMTRDTPTSTVYMELSSLRSEDTAVYYCARGARRITGYGMDVWGQGTTVTVSS VL: DIQMTQSPSSVSASVGDRVTITCRASQGISSWLAWYQQKPGKAPKLLIYAASNLQSGVPSRFSGSGSGTDFTLTISSLQPEDFATYYCQQASVFPFTFGGGTKVEIK
8.67
